Values compiled from patent US20120172359A1.

# test-target: Human BACE-1 (Homo sapiens)
# experiment: Test 1: Inhibition of Human BACE-1
# Type: biochemical
# condition-description: Test 1; recombinant BACE-1 (extracellular domain), acetate buffer pH 4.5, 1 hour with test compound at room temperature, fluorescence-quenched peptide substrate; read-out: Bace IC50
pIC50: −log10 of the molar value.
Respond with true for pIC50 values of 8 and above, false for values below.

CC#CCOc1cnc(C(=O)Nc2ccc(F)c([C@]3(C(F)F)COCC(N)=N3)c2)c(C)n1; true
Cc1nc(C(=O)Nc2cccc(C3(C)COCC(N)=N3)c2)co1 (centres unmarked); false
CC1(c2cc(NC(=O)c3ncc(C(F)(F)F)cc3Cl)ccc2F)N=C(N)COCC1(F)F (centres unmarked); false
NC1=N[C@@](c2cc(NC(=O)c3ccc(=O)[nH]c3)ccc2F)(C(F)F)COC1; false
C[C@@]1(c2cc(Br)cc(NC(=O)c3ccc(C(F)(F)F)cn3)c2)COCC(N)=N1; false

Proceed to the following item.
Is reported pIC50 greater than or equal to 8 here: NC1=N[C@@](c2cc(NC(=O)c3ncc(Cl)cc3F)ccc2F)(C(F)F)COC1
false

---

# test-target: Human BACE-1 (Homo sapiens, UniProt P56817)
# Sequence (P56817 46-457 limits assumed): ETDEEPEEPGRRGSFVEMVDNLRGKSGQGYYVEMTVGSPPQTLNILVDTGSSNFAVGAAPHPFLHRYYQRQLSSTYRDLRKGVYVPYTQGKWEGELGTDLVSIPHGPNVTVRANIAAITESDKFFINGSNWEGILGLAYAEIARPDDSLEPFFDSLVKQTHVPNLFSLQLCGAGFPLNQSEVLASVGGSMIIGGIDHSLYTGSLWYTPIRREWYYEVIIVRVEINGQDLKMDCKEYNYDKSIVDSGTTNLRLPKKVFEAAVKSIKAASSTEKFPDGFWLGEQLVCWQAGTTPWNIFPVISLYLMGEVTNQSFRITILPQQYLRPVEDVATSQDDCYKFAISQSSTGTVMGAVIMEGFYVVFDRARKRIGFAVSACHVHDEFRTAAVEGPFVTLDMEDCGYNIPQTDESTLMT
# experiment: Test 1: Inhibition of Human BACE-1
# Assay type: biochemical
# condition-description: Test 1; recombinant BACE-1 (extracellular domain), acetate buffer pH 4.5, 1 hour with test compound at room temperature, fluorescence-quenched peptide substrate; read-out: Bace IC50
pIC50: −log10 of the molar value. Where a name gives a salt, the structure may show the parent alone.
Respond with criterion met for pIC50 values of 6 and above, criterion not met for values below.

Here's what some known entries look like.
NC1=N[C@@](c2cc(NC(=O)c3cn4ccccc4n3)ccc2F)(C(F)F)COC1 [Example 129, hydrochloride]; criterion not met
CC1(c2cccc(NC(=O)c3cnc(-n4ccc(C(F)(F)F)n4)cn3)c2)COCC(N)=N1 (centres unmarked) [Example 15]; criterion not met
NC1=N[C@](CF)(c2cc(NC(=O)c3ccc(Cl)cn3)ccc2F)COC1 [Example 85, hydrochloride]; criterion met
NC1=N[C@@](c2cc(NC(=O)c3cnc(OCC(F)(F)F)cn3)ccc2F)(C(F)F)COC1 [Example 124, hydrochloride]; criterion met

Proceed to the following item.
Is reported pIC50 greater than or equal to 6 here: COc1cnc(C(=O)Nc2ccc(F)c([C@]3(C(F)F)COCC(N)=N3)c2)c(C)n1 [Example 174]
criterion met

---

# test-target: Human BACE-1 (Homo sapiens)
# experiment: Test 1: Inhibition of Human BACE-1
# Assay type: biochemical
# condition-description: Test 1; recombinant BACE-1 (extracellular domain), acetate buffer pH 4.5, 1 hour with test compound at room temperature, fluorescence-quenched peptide substrate; read-out: Bace IC50
Where a name gives a salt, the structure may show the parent alone.
The entries below are paired with their reported log10(IC50).
Plainly stated, the numbers are log10 of IC50 given in nM.

Worked examples, 5 molecules total:
CCc1nc(C(=O)Nc2ccc(F)c([C@]3(C(F)F)COCC(N)=N3)c2)co1 [Example 131, hydrochloride]; 2.52
NC1=N[C@@](c2cc(NC(=O)c3cc(Br)co3)ccc2F)(C(F)F)COC1 [Example 125, hydrochloride]; 1.89
N#Cc1ccc(C(=O)Nc2ccc(F)c(C3(C(F)(F)F)CCOCC(N)=N3)c2)nc1 (stereo not shown) [Example 98, hydrochloride]; 2.38
COc1ccc(C(=O)Nc2cccc([C@]3(C)CO[C@@](C)(C(F)(F)F)C(N)=N3)c2)nc1 (relative stereo) [Example 67, hydrochloride]; 2.00
COCCOc1cnc(C(=O)Nc2cccc(C3(C(F)F)COCC(N)=N3)c2)cn1 (stereo not shown) [Example 109, hydrochloride]; 3.08

May I ask what log10(IC50) has been recorded for NC1=N[C@@](c2cc(NC(=O)c3ncc(OCF)cc3Cl)ccc2F)(C(F)F)COC1 ?
1.77

---

# test-target: Human BACE-1 (Homo sapiens)
# experiment: Test 1: Inhibition of Human BACE-1
# Format: biochemical
# condition-description: Test 1; recombinant BACE-1 (extracellular domain), acetate buffer pH 4.5, 1 hour with test compound at room temperature, fluorescence-quenched peptide substrate; read-out: Bace IC50
Counter-ions that a name gives are not always drawn.
The entries below are paired with their reported log10 of IC50.
Plainly stated, the numbers are log10 of IC50 given in nM.

Worked examples, 2 molecules total:
Cc1nc(C(=O)Nc2ccc(F)c([C@]3(C(F)F)COCC(N)=N3)c2)c(C)o1; 2.23
C[C@@H]1OC[C@](c2cc(NC(=O)c3ccc(C#N)cn3)ccc2F)(C(F)F)N=C1N (relative stereo) [Example 76, hydrochloride]; 1.66

Here is another molecule to look at.
Missing value: log10 of IC50, Human BACE-1 (Homo sapiens), entry C[C@@H]1OC[C@](c2cc(NC(=O)c3ccc(Br)cn3)ccc2F)(C(F)F)N=C1N (relative stereo) [Example 78, hydrochloride] . Fill in?
1.58

---

# test-target: Human BACE-1 (Homo sapiens, UniProt P56817)
# experiment: Test 1: Inhibition of Human BACE-1
# Assay type: biochemical
Counter-ions that a name gives are not always drawn.
measurement-name: IC50 (nM)
The response must be a number in nM with no trailing unit.

May I ask what IC50 has been recorded for C[C@@]1(c2cc(NC(=O)c3ncc(Br)cn3)ccc2F)CO[C@@](C)(C(F)(F)F)C(N)=N1 [Example 71, hydrochloride] ?
16

---

# test-target: Human BACE-1 (Homo sapiens, UniProt P56817)
# experiment: Test 1: Inhibition of Human BACE-1
# Type: biochemical
# condition-description: Test 1; recombinant BACE-1 (extracellular domain), acetate buffer pH 4.5, 1 hour with test compound at room temperature, fluorescence-quenched peptide substrate; read-out: Bace IC50
Structures can show the parent of a compound that is named as a salt.
Assign labels as follows, please: y for IC50 below 80 nM; n for IC50 equal to or exceeding 80 nM.

Here's what some known entries look like.
Cc1nc(C(=O)Nc2cccc(C3(C)COCC(N)=N3)c2)c(C)o1 (stereo not shown); n
COc1cc(Br)cnc1C(=O)Nc1cccc(C2(C(F)F)COCC(N)=N2)c1 (stereo not shown) [Example 107, hydrochloride]; n
NC1=NC(c2cccc(NC(=O)c3ccc(O)nn3)c2)(C(F)F)COC1 (stereo not shown) [Example 103, hydrochloride]; n
CCOc1ccc(C(=O)Nc2ccc(F)c([C@]3(C(F)F)COCC(N)=N3)c2)nc1; n
C#CCOc1cnc(C(=O)Nc2ccc(F)c([C@]3(C(F)F)COCC(N)=N3)c2)cn1; y
NC1=N[C@@](c2cc(NC(=O)c3ccc(OC(F)F)cn3)ccc2F)(C(F)F)COC1 [Example 138, hydrochloride]; y

Could you please tell me whether IC50 recorded for Cc1nc(C(=O)Nc2ccc(F)c([C@]3(C(F)F)COCC(N)=N3)c2)c(N)o1 is less than 80 nM?
n

Could you please tell me whether IC50 recorded for Cc1nc(C(=O)Nc2cccc(C3(C(F)F)COCC(N)=N3)c2)c(C)o1 (stereo not shown) [Example 106, hydrochloride] is less than 80 nM?
n

Could you please tell me whether IC50 recorded for CCc1ccc(C(=O)Nc2ccc(F)c([C@]3(C(F)F)COCC(N)=N3)c2)nc1 is less than 80 nM?
n

Could you please tell me whether IC50 recorded for Cc1cc(Br)cnc1C(=O)Nc1cc(Br)cc([C@]2(C)COCC(N)=N2)c1 is less than 80 nM?
n

Could you please tell me whether IC50 recorded for N#Cc1ccc(C(=O)Nc2ccc(F)c(C3(CF)COCC(N)=N3)c2)nc1 (stereo not shown) [Example 89, hydrochloride] is less than 80 nM?
n

---

# test-target: UniProt P56817
# experiment: Test 1: Inhibition of Human BACE-1
# Format: biochemical
# condition-description: Test 1; recombinant BACE-1 (extracellular domain), acetate buffer pH 4.5, 1 hour with test compound at room temperature, fluorescence-quenched peptide substrate; read-out: Bace IC50
Counter-ions that a name gives are not always drawn.
measurement-name: log10 IC50 (log10 of the value in nM)
Plainly stated, the numbers are log10 of IC50 given in nM.

COCCOc1cnc(C(=O)Nc2ccc(F)c([C@]3(C(F)F)COCC(N)=N3)c2)c(F)c1 [Example 181]; 2.53
NC1=NC(CF)(c2cc(NC(=O)c3ccc(Cl)cn3)ccc2F)COC1 (centres unmarked) [Example 87, hydrochloride]; 1.76
CC1(C)OCC(c2cc(NC(=O)c3ccc(Br)cn3)ccc2F)(C(F)F)N=C1N (centres unmarked) [Example 80, hydrochloride]; 1.87
Cn1cc([N+](=O)[O-])c(C(=O)Nc2ccc(F)c([C@]3(C(F)F)COCC(N)=N3)c2)n1 [Example 151, hydrochloride]; 3.08
COc1cnc(C(=O)Nc2ccc(F)c([C@]3(C(F)F)COCC(N)=N3)c2)c(Cl)c1 [Example 161]; 1.82
NC1=NC(c2cccc(NC(=O)c3ccc(C(F)(F)F)cn3)c2)(C(F)F)COC1 (centres unmarked) [Example 39]; 2.89
N#Cc1ccc(C(=O)Nc2cccc(C3(C(F)F)COCC(N)=N3)c2)nc1 (centres unmarked) [Example 36]; 2.54

Here is another compound to look at.
Missing value: log10 IC50, UniProt P56817, entry Cc1cc(Br)cnc1C(=O)Nc1ccc(F)c([C@]2(CF)COCC(N)=N2)c1 [Example 91, hydrochloride] . Fill in?
1.18
